STUDY TARGET: HLA-A*0206 (human)
PROTOCOL SUMMARY: 125I-probe peptide inhibition, purified HLA
MEASUREMENT SETUP: remark: other sources report otherwise
Non-standard residues stand in square brackets, D forms with d. No end group written: not given here. Abu = CC[C@H](N)C(=O)O
MEASURED ATTRIBUTE: IC50 (nM)

LLPENNVLSPL [p53.25] | 12
KLSQHMTEV [p53.164L2] | 46

1 = KLFCQLAKV [p53.132L2V9]
2 = CLLAKTCPV [p53.135L2]
3 = KMF[Abu]QLAKV [p53.132B4V9]
4 = YMCNSSCMGGM [p53.236]
Order by IC50, ascending. Thanks in advance for listing the labels in the requested order.
1, 3, 2, 4
(1: 10 nM, 3: 37 nM, 2: 370 nM, 4: 974 nM)
